Field: growth inhibition. Provide a value for each of the compounds that follow.
Assay: NCI Yeast Anticancer Drug Screen. Data for the bub3 strain (AID 167)
Settings: S. cerevisiae bub3 mutant strain, at 50.0 µM, stronger effect = higher value
This is part of a sample that, as a whole, favours compounds with a hit. Of some 79,000 tested, about 15% had one in any assay. The source made the active and inactive calls. Cut-off read from the data, not from the text of the source: active = growth inhibition above about 70%; inactive = the rest.

Query string: Tell me growth inhibition reported for NS(=O)(=O)c1ccc(NC(=O)Nc2cccc(Cl)c2)cc1
Result string: 46.4% (inactive)

Query string: Tell me growth inhibition reported for Cc1ccc(N(C)C(=O)Nc2ccccc2)c(C)c1
Result string: 4.55% (inactive)

Query string: Tell me growth inhibition reported for Cc1ccc2nc[nH]c2c1
Result string: 4.05% (inactive)

Query string: Tell me growth inhibition reported for COc1ccc(C(C)=O)c(OC(C)=O)c1OC(C)=O
Result string: 5.8% (inactive)

Query string: Tell me growth inhibition reported for O=C(CN1C(=O)c2ccccc2C1=O)OC1C=CCCC1 (configuration not stated)
Result string: 9.6% (inactive)

Query string: Tell me growth inhibition reported for CCC(O)(c1ccc(OC)cc1)C(c1ccc(OCc2ccccc2)cc1)c1ccc(OCc2ccccc2)cc1 (configuration not stated)
Result string: -10.1% (inactive)

Query string: Tell me growth inhibition reported for CCCCCCCCCCOc1ccc(C=NC/C=C/c2ccc(CC)cc2)cc1
Result string: -1.2% (inactive)

Query string: Tell me growth inhibition reported for N#CCCOC1C(OCCC#N)C(OCCC#N)C(OCCC#N)C(OCCC#N)C1OCCC#N (configuration not stated)
Result string: 28.2% (inactive)

Query string: Tell me growth inhibition reported for CO/N=C1\CC(NC(=O)C(F)(F)F)c2ccsc21 (configuration not stated)
Result string: -2.8% (inactive)

Query string: Tell me growth inhibition reported for Nc1nc(N)nc(SCC(=O)O)n1
Result string: -2.05% (inactive)

Query string: Tell me growth inhibition reported for CCCCCCCCC(C)(C)O
Result string: 5.65% (inactive)

Query string: Tell me growth inhibition reported for COc1cc(N=C(N)N=C(N)N)c2ncccc2c1
Result string: -3.75% (inactive)

###

Test: NCI Yeast Anticancer Drug Screen. Data for the mlh1 rad18 strain (AID 175)
Settings: S. cerevisiae mlh1 rad18 strain growth inhibition; at 50.0 µM
This is part of a sample that, as a whole, favours compounds with a hit. Of some 79,000 tested, about 15% had one in any assay. Activity calls are given as the source filed them. Cut-off read from the data, not from the text of the source: active = growth inhibition above about 70%; inactive = the rest.
The categories you may choose from are t = active, f = inactive

Query string: For Cc1[nH]n(-c2ccccc2)c(=O)c1/C=N\C(N)=S , which call appears in the assay record?
Result string: f

Query string: For O=C1NC2(CCCC2)C(=O)N2CCCC12 (stereo not drawn) , which call appears in the assay record?
Result string: f

Query string: For O=C1CSC2=NC3=C(COC/C3=C\c3ccc(Br)cc3)C(c3ccc(Br)cc3)N12 (stereo not drawn) , which call appears in the assay record?
Result string: f

Query string: For O=CNc1ccc(F)c(F)c1 , which call appears in the assay record?
Result string: f

Query string: For CCCCCCCCCCCCCCCCCCNC(=O)NCc1ccncc1 , which call appears in the assay record?
Result string: f

Query string: For Cc1c(O)nc(N)[nH]c1=O , which call appears in the assay record?
Result string: f

Query string: For O=C(CC(C(=O)c1cccs1)c1ccsc1)c1ccc(Cl)s1 (stereo not drawn) , which call appears in the assay record?
Result string: f

Query string: For CSc1nc2c(nnn2C2OCC(O)C(O)C2O)c(=O)[nH]1 (stereo not drawn) , which call appears in the assay record?
Result string: f

Query string: For CCCCCCCCCCCCCCCCC(=O)O , which call appears in the assay record?
Result string: f

Query string: For O=C1C(c2ccccc2)=[N+]([O-])c2cc([N+](=O)[O-])ccc21 , which call appears in the assay record?
Result string: f

Query string: For CC(C)N(CSc1ccc([N+](=O)[O-])cc1)CSc1ccc([N+](=O)[O-])cc1 , which call appears in the assay record?
Result string: f

Query string: For O=C(OCc1ccccc1)c1ccccc1 , which call appears in the assay record?
Result string: f

Query string: For CCOc1ccccc1NC(=O)c1ccc(Cl)cc1 , which call appears in the assay record?
Result string: f

Query string: For Nc1ccccc1SC1CC(=O)N(c2ccc(I)cc2)C1=O (stereo not drawn) , which call appears in the assay record?
Result string: f

Query string: For C=CCOC(=O)CCC(=O)OCC=C , which call appears in the assay record?
Result string: f

Query string: For CC(C)(C)C1CCC(=NO)CC1 (stereo not drawn) , which call appears in the assay record?
Result string: f

Query string: For CC(=O)c1cccc(OCC(O)CN2CCN(c3ccc(C)cc3)CC2)c1 (stereo not drawn) , which call appears in the assay record?
Result string: f

Query string: For CC(C)C(O)(c1ccccc1)C(O)(c1ccccc1)C(C)C (stereo not drawn) , which call appears in the assay record?
Result string: t

Query string: For O=C(Nc1ccc2c(O)c(N=Nc3ccc(N=Nc4ccc(S(=O)(=O)O)cc4)cc3)c(S(=O)(=O)O)cc2c1)c1ccccc1 , which call appears in the assay record?
Result string: f

Query string: For O=C1CSC(c2cccc(O)c2O)N1c1nncs1 (stereo not drawn) , which call appears in the assay record?
Result string: f

Query string: For ClC(Cl)(Cl)C(N1CCN(c2ccccc2)CC1)N1CCN(c2ccccc2)CC1 , which call appears in the assay record?
Result string: f

Query string: For Cc1ccc(NC(=O)/C=C/c2ccccc2)cc1Cl , which call appears in the assay record?
Result string: f

Query string: For CC(=O)OCC(COC(C)=O)C(C)=O , which call appears in the assay record?
Result string: f

Query string: For CCc1nc(-c2ccccc2)nc2c1nc(-c1cccc(C)c1)n2Nc1ccccc1 , which call appears in the assay record?
Result string: f

Query string: For NC(=O)N/N=C/c1ccccc1O , which call appears in the assay record?
Result string: f

Query string: For O=c1c2ccccc2[nH]c2c(O)c3c(=O)c4ccccc4[nH]c3cc12 , which call appears in the assay record?
Result string: f

Query string: For CC(=O)NC1CCC(Cc2ccccc2)CC1 (stereo not drawn) , which call appears in the assay record?
Result string: f

Query string: For CC(C)CC(NC(=O)CNC(=O)CNC(=O)OCc1ccccc1)C(=O)O (stereo not drawn) , which call appears in the assay record?
Result string: f

Query string: For O=[N+]([O-])c1ccc(CS(=O)(=O)c2cccs2)o1 , which call appears in the assay record?
Result string: f

Query string: For CN(Cc1ccccc1)N=NCc1ccccc1 , which call appears in the assay record?
Result string: f

Query string: For CC1(C)OC(=O)C(=Cc2ccc(C#N)cc2)C(=O)O1 , which call appears in the assay record?
Result string: f

Query string: For CCC(C(=O)O)c1ccc(OCc2ccccc2)cc1 (stereo not drawn) , which call appears in the assay record?
Result string: f

Query string: For CCOC(=N)CC(=O)Nc1ccccc1 , which call appears in the assay record?
Result string: f

###

Assay: NCI Yeast Anticancer Drug Screen. Data for the mec2-1 strain (AID 157)
Details: S. cerevisiae mec2-1 strain, at 50.0 µM, stronger effect = higher value
The panel holds about 79,000 compounds, 15% with a hit somewhere; the sample as a whole holds those more often.
assay endpoint: growth inhibition (%)
Numbers only here, please. The scale is %.

Query string: Tell me growth inhibition reported for CC(C)OC(=O)c1ccc(=O)oc1
Result string: -5.85

Query string: Tell me growth inhibition reported for CC1(C)CC(C)(C)[P+]1(C)c1ccccc1
Result string: 16.4

Query string: Tell me growth inhibition reported for COC1OC(CO)C(O)C(OC(C)=O)C1NC(=O)N(CCCl)N=O (centres undefined)
Result string: -13.4

Query string: Tell me growth inhibition reported for Fc1c(F)c(F)c(-c2nnc(-c3c(F)c(F)c(F)c(F)c3F)o2)c(F)c1F
Result string: 2.75

Query string: Tell me growth inhibition reported for CN(Cc1ccccc1)N=NCc1ccccc1
Result string: -15.8

Query string: Tell me growth inhibition reported for CCC(C)(O)CCC(C)(O)CC (centres undefined)
Result string: 5.4

Query string: Tell me growth inhibition reported for N=c1c2c(ncn1N)CCN(Cc1ccccc1)C2
Result string: 7.35

Query string: Tell me growth inhibition reported for Nc1nnc2nc(CC(=O)c3ccc(F)cc3)c(CC(=O)c3ccc(F)cc3)nn12
Result string: 30.3

Query string: Tell me growth inhibition reported for CC1=NC(C(N)=O)C(=O)N1 (centres undefined)
Result string: -23.4

Query string: Tell me growth inhibition reported for O=C(Nc1ccc(Cl)c(Cl)c1)C(Cl)Cl
Result string: 15.1

Query string: Tell me growth inhibition reported for O=C(O)C1(NO)CCCCC1
Result string: 6.7

Query string: Tell me growth inhibition reported for O=C1c2cccc3cccc(c23)C(=O)N1Cc1ccco1
Result string: 36.2

Query string: Tell me growth inhibition reported for CCOC(=O)N1c2ccccc2S(=O)(=O)c2ccccc21
Result string: -10.3

Query string: Tell me growth inhibition reported for c1ccc2cc(Nc3ccc(Nc4ccc5ccccc5c4)cc3)ccc2c1
Result string: 4.4

Query string: Tell me growth inhibition reported for NC(=O)/C(=C(/O)C(=O)O)c1ccnc2ccccc12
Result string: -4.8

Query string: Tell me growth inhibition reported for CCCC(=O)Nc1cccc(C(F)(F)F)c1
Result string: 19.6

Query string: Tell me growth inhibition reported for C[C@H](OCc1ccccc1)C(=O)N1CCS(=O)(=O)N2CCC[C@@H]2C1=O
Result string: -19.1

Query string: Tell me growth inhibition reported for CC(=O)C[n+]1ccccc1Sc1ccc(Cl)cc1
Result string: -9.25

Query string: Tell me growth inhibition reported for CCSC1C(N=[N+]=[N-])C(CO)OC1n1cnc2c(N)ncnc21 (centres undefined)
Result string: -3.2

Query string: Tell me growth inhibition reported for O=C1/C(=C/c2ccc3c(c2)OCO3)CC/C1=C\c1ccc2c(c1)OCO2
Result string: 5.35

Query string: Tell me growth inhibition reported for CCCN=C(C)C(C)=NCCC
Result string: -15.1

Query string: Tell me growth inhibition reported for CCN(CC)Cc1c(C)cccc1O
Result string: -4.35

Query string: Tell me growth inhibition reported for CSC1=Nc2ccccc2N=C(c2ccccc2)C1
Result string: -10.8

Query string: Tell me growth inhibition reported for c1ccc2c(c1)C(=Nc1ccc(N=C3c4ccccc4-c4ccccc43)cc1)c1ccccc1-2
Result string: -0.55

Query string: Tell me growth inhibition reported for OC(CC(c1ccccc1)c1cccc2ccccc12)(c1ccccc1)c1ccccc1 (centres undefined)
Result string: -17.9

Query string: Tell me growth inhibition reported for Cc1cccc(-n2c(C)nc3[nH]cc(C)c3c2=N)c1
Result string: 0.65

Query string: Tell me growth inhibition reported for Cc1cc(N=Nc2ccc(C(=O)Nc3ccc4cc(S(=O)(=O)O)ccc4c3)cc2)c(N)c(N=Nc2ccc(N=Nc3ccc(O)c(C(=O)O)c3)cc2)c1N
Result string: 29.6

Query string: Tell me growth inhibition reported for CSc1ncc(C=O)n1Cc1ccccc1
Result string: 6.7

Query string: Tell me growth inhibition reported for Brc1nc2c3ccccc3ncn2c1Br
Result string: -3.05

Query string: Tell me growth inhibition reported for C/C=C/C=C/CC
Result string: -12.3

Query string: Tell me growth inhibition reported for COC(=O)[C@]1(C)CCC[C@]2(C)c3ccc(C(C)=O)cc3C(=O)C[C@@H]12
Result string: -10.8

Query string: Tell me growth inhibition reported for Nc1ccc(C(=O)Nc2ccc3c(O)cc(S(=O)(=O)O)cc3c2)cc1
Result string: 5.55

Query string: Tell me growth inhibition reported for CCCC(=O)C(N)CC(C)C (centres undefined)
Result string: 5.4

Query string: Tell me growth inhibition reported for CC(C)CC(NC(=O)CNC(=O)CNC(=O)OCc1ccccc1)C(=O)O (centres undefined)
Result string: 7.75
